assayedSystem: γ-secretase (Homo sapiens, UniProt P49768)
Construct: Human embryonic kidney (HEK) 293 cells stably transfected with APPsw-lon in pcDNA3.1 vector; endogenous in cells
testName: Cell based γ-secretase assay (Aβ42 in conditioned media, MSD sandwich immunoassay)
measurementConditions: HEK 293 cells stably transfected with APPsw-lon; 5 hrs treatment; means of two independent experiments
pIC50: −log10 of the molar value.
Cut-off 7 on pIC50, inclusive. At or above means met; below means not met.

Determine whether this molecule has pIC50 no lower than 7: COc1cc(-c2noc3c2CCCC3OCc2cc(F)cc(F)c2)ccc1-n1cnc(C)c1 (racemic)
not met

Would you say COc1cc(-c2noc3c2CCCC3N(C)Cc2ccc(F)cc2)ccc1-n1cnc(C)c1 (racemic) shows pIC50 at minimum 7?
not met

Please tell me: is the molecule COc1cc(-c2noc3c2CCCC3NCc2cc(F)cc(F)c2)ccc1-n1cnc(C)c1 (single isomer, unassigned) [drawing 33] at or over 7 in terms of pIC50?
not met

Please indicate if the recorded pIC50 for COc1cc(-c2noc3c2CCCC3NCC(F)(F)F)ccc1-n1cnc(C)c1 (racemic) meets or exceeds 7.
not met

Decide: pIC50 of COc1cc(-c2noc3c2CCCC3(O)c2cc(F)cc(F)c2)ccc1-n1cnc(C)c1 (racemic) >= 7?
not met

Given the entry COc1cc(-c2noc3c2CCCC3Nc2ccc(F)cc2)ccc1-n1cnc(C)c1 (single isomer, unassigned) [drawing 26] , answer whether its pIC50 meets or surpasses 7.
not met

# bool: pIC50 of COc1cc(-c2noc3c2CCCC3Oc2ccc(F)cc2)ccc1-n1cnc(C)c1 (racemic) >= 7
not met

Textbook exercise: given the entry COc1cc(-c2noc3c2CCCC3Nc2ccc(F)cc2)ccc1-n1cnc(C)c1 (single isomer, unassigned) [drawing 25] , state whether its pIC50 is greater than or equal to 7.
met

Assess whether reported pIC50 for COc1cc(-c2noc3c2CCCC3NC2CCCCC2)ccc1-n1cnc(C)c1 (racemic) sits at 7 or higher.
not met

Is it the case that COc1cc(-c2noc3c2CCCC3N[C@H](C)c2ccc(F)cc2)ccc1-n1cnc(C)c1 (mixture of isomers) has pIC50 reaching or exceeding 7?
not met

Form field: pIC50 at least 7? Entry: COc1cc(-c2noc3c2CCCC3Oc2cc(F)cc(F)c2)ccc1-n1cnc(C)c1 (racemic)
not met

Quick check, pIC50 >= 7? COc1cc(-c2noc3c2CCCC3NCc2cc(F)cc(F)c2)ccc1-n1cnc(C)c1 (single isomer, unassigned) [drawing 34]
met

Does the molecule CNC1CCCc2c(-c3ccc(-n4cnc(C)c4)c(OC)c3)noc21 (racemic) have recorded pIC50 that is 7 or more?
not met
